Everything with logP lower than 0.8 is criterion not met; everything else, including exactly 0.8, is criterion met.

- compound: "CNC(=O)ON=C1CSCS1"
  label: "criterion not met"
- compound: "CNC(=O)ON=C1SCSC1(C)C"
  label: "criterion met"
- compound: "CNC(=O)ON=C1COCS1"
  label: "criterion not met"
- compound: "CNC(=O)ON=C1SC(C)OC1C (centres undefined)"
  label: "criterion met"
- compound: "CNC(=O)ON=C1SCOC1C(C)C (centres undefined)"
  label: "criterion met"
- compound: "CNC(=O)ON=C1COCCS1"
  label: "criterion not met"
- compound: "CNC(=O)ON=C1CSCCS1"
  label: "criterion not met"
- compound: "CNC(=O)ON=C1SCOC1CCOC (centres undefined)"
  label: "criterion not met"
- compound: "CNC(=O)ON=C1CSC(C)(C)S1"
  label: "criterion met"
- compound: "CNC(=O)ON=C1SCOC1C (centres undefined)"
  label: "criterion not met"
- compound: "CNC(=O)ON=C1SCSC1C (centres undefined)"
  label: "criterion met"
- compound: "CNC(=O)ON=C1SCCSC1(C)C"
  label: "criterion met"
- compound: "CCCC1OCSC1=NOC(=O)NC (centres undefined)"
  label: "criterion met"

Data origin, for the record: the OPERA property sets (Mansouri et al. 2018)
